Target: human Edg-1 receptor (Homo sapiens, UniProt P21453)
Construct: expressed in transfected cells; host or cells: Flp-In-CHO cells, stably transfected; membrane preparation
Sequence (P21453 whole entry): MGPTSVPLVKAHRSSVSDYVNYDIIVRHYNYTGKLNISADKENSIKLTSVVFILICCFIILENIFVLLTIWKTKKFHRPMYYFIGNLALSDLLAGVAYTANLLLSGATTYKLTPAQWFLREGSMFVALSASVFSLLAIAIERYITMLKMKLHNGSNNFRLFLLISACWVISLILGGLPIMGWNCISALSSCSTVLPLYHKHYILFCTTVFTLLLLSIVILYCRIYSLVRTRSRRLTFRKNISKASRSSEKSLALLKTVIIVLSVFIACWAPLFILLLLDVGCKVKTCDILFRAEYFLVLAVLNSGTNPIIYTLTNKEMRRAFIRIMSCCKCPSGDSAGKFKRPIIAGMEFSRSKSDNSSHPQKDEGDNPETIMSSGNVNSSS
Assay: GTP-γ-S assay using human Edg-1 receptors (scintillation proximity assay, CHO Flp-In cell membrane preparation)
Type: biochemical
Conditions: test compound at 10 μM; 10 μM S1P regarded as 100% activation; background-corrected; triplicate; read-out: % Activation (Edg-1 receptor activation in percent of the activation by 10 μM S1P)
Description: A) GTP-γ-S assay using human Edg-1 receptors In order to determine the Edg-1 receptor activation by the compounds of the invention, a GTP-γ-S (guanosine 5′-[thio]triphosphate) assay for G-protein coupled receptor binding based on the scintillation proximity assay principle was used, employing a cell membrane preparation from a CHO Flp-In cell line which constitutively overexpresses the human Edg-1 receptor. […]
OBSERVABLE: activation at 10 µM (%)
Write the value in % as a bare number.

Here is how some compounds turned out for activation at 10 µM.
Cc1cc(-c2nc3cnc(Oc4ccccc4F)nc3o2)ccc1O    115
Cc1cc(-c2nc3cnc(Oc4cccc(F)c4)nc3o2)cc(C(C)C)c1O    112
Cc1cc(-c2nc3cnc(Oc4cccnc4)nc3o2)cc(C)c1O    103
Cc1cc(S(C)(=O)=O)ccc1-c1nc2cnc(Oc3ccccc3F)nc2o1    69
Oc1ccc(-c2nc3cnc(Oc4ccccc4F)nc3o2)cc1    83

QUERY: Query (compound): `Cc1cc(-c2nc3cnc(Oc4ccccc4F)nc3o2)ccc1S(C)(=O)=O` ; field requested: activation at 10 µM
RESULT: 120

QUERY: Also `COc1cccc(-c2nc3cnc(Oc4ccccc4F)nc3o2)c1` , if possible.
RESULT: 95

QUERY: Also `Oc1ccc(-c2nc3cnc(Oc4ccccc4F)nc3o2)cc1C(F)(F)F` , if possible.
RESULT: 107

QUERY: Also `COc1c(C)cc(-c2nc3cnc(Oc4cccnc4)nc3o2)cc1C` , if possible.
RESULT: 87

QUERY: Also `COc1c(C)cc(-c2nc3cnc(Oc4ccccc4)nc3o2)cc1C` , if possible.
RESULT: 94

These measurements were taken from patent US9040544B2.
